# SYSTEM: VP1 capsid protein on BKV pseudovirions of genotype Ia (BK-D; JF894228) (BK virus genotype Ia (BK-D))
# EXPERIMENTAL_DETAILS: cell-based or functional assay
ATTRIBUTE_MEASURED: Neutralization PSV IC50 (µg/mL)
Report the figure in µg/mL without appending any unit label.

Known Neutralization PSV IC50 results, listed for orientation:
{"columns": ["BINDER", "VALUE_UNIT", "MEASURED_NUMBER"],
 "data": [
  ["antibody E4P2 (antibody, V domains shown) VH: QVQLQESGPGLVKPSQTLSLTCTVSGGSISSGGYYWSWIRQHPGKGLEWIGYMYYSGSTNYNPSLKSRVTISVDTSKNQFSLKLTSVTAADTAVYYCARDRRDYGDYYYFGMDVWGQGTTVTVSS VL: QSVLTQPPSVSGAPGQRVTISCTGSSSNIGAGYDVHWYQQLPGTAPKLLIYANSNRPSGVPDRFSGSKSGTSASLAITGLQAEDEANYYCQSYDSSLSVYVVFGGGTKLTVL", "µg/mL", 0.0399],
  ["antibody B10P1 (antibody, V domains shown) VH: EVQLSESGGGLVQPGGSLRLSCAASGFTFSSYAMSWVRQAPGKGLEWVSSLTGSGGSTYYRDSVKGRFTIFRDNSKKTLYMQMNSLRAEDTAVYYCAKEGAYSYDFWYFDLWGRGTLVTVSS VL: EIVLTQSPGTLSLSPGERATLSCRASQTVSGNYLAWYQQKPGQSPSLLIYGASSRATGIPDRFTGSGSGTDFTLTISRLEPADFAVYYCQQYGRPLTFGGGTKVDIK", "µg/mL", 1.27]
]}

State the recorded Neutralization PSV IC50 for this entry: antibody F11P5 (antibody, V domains shown) VH: QVQLVQSGSELKKPGASVKVSCKASAYTFTNSAINWVRQAPGQGLEWMGWINTNTGNPAYAQGFRGRFVFSLDTSVSEAYLQISNLKAEDTATYYCTVPYNFGGDHNSYYFFGVDIWGQGTTVTVSS VL: QSALTQPASVSGSPGQSITISCTGSSSDVGSYNLVSWFQQHPAKAPKVMIYEGTKRPSGVSDRFSGSKSGNTASLTISGLQAEDEADYYCCSYAGSNTFVFGTGTKVSVL
0.492

These data points were gathered from patent EP4659811A1.
